test: NCI Yeast Anticancer Drug Screen. Data for the bub3 strain (AID 167); conditions: S. cerevisiae bub3 mutant strain, at 50.0 µM (retest, dose inferred, filed as 5.0), stronger effect = higher value
The panel holds about 79,000 compounds, 15% with a hit somewhere; the sample as a whole holds those more often.
MEASURED METRIC: growth inhibition (%)
Answer format: numeric, % implied, no suffix.

Exam item: Any idea what growth inhibition was measured for Cc1ccc(S/C(=C\C(=O)O)c2ccccc2)cc1 ?
Marked response: 66

Exam item: Any idea what growth inhibition was measured for CN(C)N=Nc1ccccc1C(=O)NC#N ?
Marked response: 77

====

Below: a set of entries, each annotated with reported growth inhibition.
experiment: NCI Yeast Anticancer Drug Screen. Data for the mec2-1 strain (AID 157); conditions: S. cerevisiae mec2-1 strain, at 50.0 µM (retest, dose inferred, filed as 5.0), stronger effect = higher value
The panel holds about 79,000 compounds, 15% with a hit somewhere; the sample as a whole holds those more often.
Answer format: numeric, % implied, no suffix.

>>> meas_value("COc1cc(C2SCC(=O)N2c2ccc(-c3ccc(-n4c(-c5ccccc5)nc5ccccc5c4=O)cc3)cc2)ccc1O (stereo not given)")
21
>>> meas_value("CCOC(=O)[C@H]1Nc2ccc(OC)cc2C2c3ccccc3CC21 (stereo not given in full)")
13

Exam item: Any idea what growth inhibition was measured for N#CC(=Nc1ccccc1F)Nc1ccccc1F ?
Marked response: 8

Exam item: Any idea what growth inhibition was measured for COc1ccc(C(=O)c2ccccc2C(=O)c2ccccc2OC)cc1 ?
Marked response: 16

====

assay: NCI Yeast Anticancer Drug Screen. Data for the cln2 rad14 strain (AID 165);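 also: 0% = growth equal to vehicle treated cultures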; settings: S. cerevisiae cln2 rad14 strain, at 50.0 µM (retest, dose inferred, filed as 5.0)
The panel holds about 79,000 compounds, 15% with a hit somewhere; the sample as a whole holds those more often. Calls of active or inactive are those of the source. Rule as the data show it: active = growth inhibition above about 70%; inactive = the rest.
Pick from True = active, False = inactive when you respond.

Worked examples follow.
>>> answer_label("O=C1NC(SSC2=NNC3(C(=O)N2)c2ccccc2-c2ccccc23)=NNC12c1ccccc1-c1ccccc12")
"False"
>>> answer_label("CCCCNC1CCC2(SCCS2)c2[nH]c3ccccc3c21 (configuration not stated)")
"False"
>>> answer_label("CCN(CC)Cc1cc(Nc2c3ccccc3nc3c2[nH]c2ccccc23)cc(CN(CC)CC)c1O")
"False"
>>> answer_label("N/C(=N/N=C/c1cc(Br)cc(Br)c1O)NO")
"True"
>>> answer_label("OCc1ccccc1Cc1ccccc1")
"False"

Exam item: Hi, sorry to bother you, what did the test record for Cc1ccc2c(c1)C1(SC(C)C(=O)N1c1ccc(Cl)cc1)C(=O)N2 (configuration not stated) ?
Marked response: False

Exam item: Hi, sorry to bother you, what did the test record for CC(C)(CCCCC(C)(C)[N+](C)(C)C)[N+](C)(C)C ?
Marked response: False

====

test: NCI Yeast Anticancer Drug Screen. Data for the rad50 strain (AID 155);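 also: 0% = growth of vehicle-only cultures of the same strain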; conditions: S. cerevisiae rad50 strain growth inhibition; at 3.7 µM; stronger effect = higher value
Compounds without any hit were thinned out: in the full panel of roughly 79,000, 15% have a hit.
Is growth inhibition at least -10%? Then MET. If not, NOT MET.

>>> answer_label("c1ccc(Cc2cc(-c3ccccc3)n[nH]2)cc1")
"NOT MET"

Exam item: Does the molecule Cc1c2cccc(Sc3ccccc3)c2c2c3c(cccc13)[S+](c1ccccc1)C2 (configuration not stated) have recorded growth inhibition that is -10% or more?
Marked response: MET

Exam item: Does the molecule CCOC(=O)/C(=C\c1ccc(C#N)cc1)C(C)=O have recorded growth inhibition that is -10% or more?
Marked response: MET

Exam item: Does the molecule CCO/C(C)=C(/C#N)C(N)=S have recorded growth inhibition that is -10% or more?
Marked response: MET

Exam item: Does the molecule Cc1nc2ccccc2nc1NNc1ccccc1 have recorded growth inhibition that is -10% or more?
Marked response: NOT MET

Exam item: Does the molecule CC(C)c1ccc(NC(=S)NC(=O)c2ccccc2)cc1 have recorded growth inhibition that is -10% or more?
Marked response: NOT MET

Exam item: Does the molecule Cc1ccc2nc(-c3cccc([N+](=O)[O-])c3)oc(=O)c2c1 have recorded growth inhibition that is -10% or more?
Marked response: NOT MET

Exam item: Does the molecule CC(=O)ON=C1C=CC(=C(C#N)c2ccc(Cl)cc2)C=C1 have recorded growth inhibition that is -10% or more?
Marked response: MET

Exam item: Does the molecule OC1(c2ccccc2)CCCc2ccc(Cl)cc21 (configuration not stated) have recorded growth inhibition that is -10% or more?
Marked response: MET

====

assay: NCI Yeast Anticancer Drug Screen. Data for the rad50 strain (AID 155);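 also: 0% = growth of vehicle-only cultures of the same strain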; conditions: S. cerevisiae rad50 strain growth inhibition; at 50.0 µM (retest, dose inferred, filed as 5.0); stronger effect = higher value
This is part of a sample that, as a whole, favours compounds with a hit. Of some 79,000 tested, about 15% had one in any assay.
MEASURED METRIC: growth inhibition (%)
Answer format: numeric, % implied, no suffix.

>>> meas_value("CNC(=O)OCc1c(COC(=O)NC)c(-c2ccc(Cl)cc2)n2c1CCC2")
11
>>> meas_value("Cc1c(C)c(C)c(CSC(=N)N)c(C)c1C")
81
>>> meas_value("CC[N+]1(C)CCC(O)(c2ccc(OC)cc2)C(C(=O)c2ccc(OC)cc2)C1 (stereo unspecified)")
28

Exam item: Any idea what growth inhibition was measured for O=C(/C=C/c1cc(Cl)cc(Cl)c1O)c1cccc(O)c1 ?
Marked response: 97

Exam item: Any idea what growth inhibition was measured for Cc1nc2ccc(N=NN(C)C)cc2[nH]1 ?
Marked response: 97

Exam item: Any idea what growth inhibition was measured for Nc1nc(N)c2nc(CNc3ccc(C(=O)NC(CCC(=O)O)C(=O)O)cc3F)cnc2n1 (stereo unspecified) ?
Marked response: 86

====

Below: a set of entries, each annotated with reported growth inhibition.
assay: NCI Yeast Anticancer Drug Screen. Data for the rad18 strain (AID 177); settings: S. cerevisiae rad18 mutant growth inhibition; at 1.2 µM; stronger effect = higher value
This is part of a sample that, as a whole, favours compounds with a hit. Of some 79,000 tested, about 15% had one in any assay. Active and inactive are the calls of the source. Cut-off read from the data, not from the text of the source: active = growth inhibition above about 70%; inactive = the rest.

Record excerpt, results attached:
>>> meas_value("CCCCCCCCCCCCCCCCOP(=O)(O)OCC(N)C(=O)O (stereo unspecified)")
"-25% (inactive)"
>>> meas_value("C[C](C)(C)[Ge]([O][Ge]([c]1ccccc1)[c]1ccccc1)([O][Ge]([c]1ccccc1)[c]1ccccc1)[C](C)(C)C")
"4% (inactive)"
>>> meas_value("CCCCN(CCCC)C(=O)/C=C/c1ccccc1")
"-6% (inactive)"
>>> meas_value("O=Cc1ccc2c(c1)C(=O)c1ccccc1C2=O")
"-1% (inactive)"
>>> meas_value("O=C(CSC(=S)N1CCCCC1)Nc1nc2c(s1)CCCC2")
"27% (inactive)"

Next up:
Exam item: Any idea what growth inhibition was measured for OCc1ccccc1Cc1ccccc1 ?
Marked response: -1% (inactive)

====

Below: a set of entries, each annotated with reported growth inhibition.
Assay: NCI Yeast Anticancer Drug Screen. Data for the mlh1 strain (AID 171);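 also: 0% = growth of vehicle-treated control cultures of the same strain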
Settings: S. cerevisiae mlh1 strain growth inhibition; at 100.0 µM; stronger effect = higher value
Protocol: Growth inhibition of yeast strains with defined genetic alterations is measured as a screen for potential anti-cancer activity. Selected strains with alterations in DNA damage repair or cell cycle control were exposed to compounds and growth inhibition was measured relative to vehicle treated controls. The strain used in this assay is mlh1
The panel holds about 79,000 compounds, 15% with a hit somewhere; the sample as a whole holds those more often.
Answer format: numeric, % implied, no suffix.

>>> meas_value("O=C1c2cccnc2C(=O)C2C3C=CC(C3)C12 (configuration not stated)")
99
>>> meas_value("CCCCC/C(=C(\\C#N)C(=O)OCC)c1ccccc1")
18
>>> meas_value("CC12C(=O)OC(=O)C(c3ccccc31)c1ccccc12")
-6

Exam item: Any idea what growth inhibition was measured for O=c1nc2n(Cc3ccccc3)c3ccccc3nc-2c(=O)[nH]1 ?
Marked response: 97

Exam item: Any idea what growth inhibition was measured for CCC(C)NC1=NCC(C)S1 (configuration not stated) ?
Marked response: -42

Exam item: Any idea what growth inhibition was measured for CC(C)c1ccc(NC(=S)NC(=O)c2ccccc2)cc1 ?
Marked response: 56

Exam item: Any idea what growth inhibition was measured for CCN(CC)CCNc1ccc([N+](=O)[O-])c2nc3ccccc3c(N)c12 ?
Marked response: 8

====

test: NCI Yeast Anticancer Drug Screen. Data for the CLN2oe strain (AID 163);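 also: 0% = growth of vehicle-only control cultures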; settings: S. cerevisiae CLN2oe strain, at 100.0 µM, stronger effect = higher value
About 79,000 compounds went through this panel and 15% of them were active in at least one assay; those are over-represented in the sample as a whole.
MEASURED METRIC: growth inhibition (%)
Answer format: numeric, % implied, no suffix.

Record excerpt, results attached:
>>> meas_value("CN(C)N=Nc1ccccc1C(=O)NC#N")
99
>>> meas_value("COc1cccc2c1C(=O)c1c(O)c3c(c(O)c1C2=O)C[C@@](O)(C(C)=O)C[C@@H]3OC1CC(OC(C)=O)C(OC(C)=O)C(C)O1 (some centres undefined)")
19
>>> meas_value("O=C1c2ccccc2C(=O)c2cc(CCl)ccc21")
2

Next up:
Exam item: Any idea what growth inhibition was measured for NC1CCCCC1N.Nc1c(N=Nc2ccc(-c3ccc(N=Nc4cc(S(=O)(=O)[O-])c5ccccc5c4N)cc3)cc2)cc(S(=O)(=O)[O-])c2ccccc12.[OH3+].[OH3+].[Pt+4] ?
Marked response: 63
